- System: LOU-NH91
- assay.summary: relative viability (nuclei count vs DMSO), 5 days (fraction); higher = more cells survive
- measurement.conditions: first compound 0.04 µM
quantity: relative viability

- compound: "Cc1sc2c(c1C)C(c1ccc(Cl)cc1)=N[C@@H](CC(=O)OC(C)(C)C)c1nnc(C)n1-2 [JQ1] + Cc1nc(NC(=O)N2CCC[C@H]2C(N)=O)sc1-c1ccnc(C(C)(C)C(F)(F)F)c1 [Alpelisib] (partner 2 µM)"
  quantity: "relative viability"
  readout.value: 0.683
- compound: "Cc1sc2c(c1C)C(c1ccc(Cl)cc1)=N[C@@H](CC(=O)OC(C)(C)C)c1nnc(C)n1-2 [JQ1] + CC(=O)Nc1cccc(-n2c(=O)n(C3CC3)c(=O)c3c(Nc4ccc(I)cc4F)n(C)c(=O)c(C)c32)c1 [Trametinib] (partner 0.02 µM)"
  quantity: "relative viability"
  readout.value: 0.774
- compound: "Cc1sc2c(c1C)C(c1ccc(Cl)cc1)=N[C@@H](CC(=O)OC(C)(C)C)c1nnc(C)n1-2 [JQ1] + Nc1ncn([C@H]2C[C@H](O)[C@@H](CO)O2)c(=O)n1 [Decitabine] (partner 2 µM)"
  quantity: "relative viability"
  readout.value: 0.826
- compound: "Cc1sc2c(c1C)C(c1ccc(Cl)cc1)=N[C@@H](CC(=O)OC(C)(C)C)c1nnc(C)n1-2 [JQ1] + CC(=O)c1c(C)c2cnc(Nc3ccc(N4CCNCC4)cn3)nc2n(C2CCCC2)c1=O [Palbociclib] (partner 0.5 µM)"
  quantity: "relative viability"
  readout.value: 0.493
